Attribution: paper PMC8244813

- Experiment: SFN metabolites in plasma by LC-MS/MS
- Condition description: BSE group n=42; after 200 μmol SFN daily, 4–8 wk
Measured endpoint: Plasma level of individual SFN metabolite, postintervention, Mean (SE)

{"columns": ["Compound", "Result"],
 "data": [
  ["CC(=O)N[C@@H](CSC(=S)NCCCC[S+](C)[O-])C(=O)O (stereo partly drawn) [SFN-NAC, SFN N-acetyl-L-cysteine]", "0.03 (0.01) μM"],
  ["C[S+]([O-])CCCCNC(=S)SC[C@H](NC(=O)CC[C@H](N)C(=O)O)C(=O)NCC(=O)O (stereo partly shown) [SFN-GSH, SFN-glutathione]", "0.03 (0.01) μM"],
  ["C[S+]([O-])CCCCN=C=S (stereo not shown) [SFN, sulforaphane]", "0.0001 (0.0001) μM"],
  ["C[S+]([O-])CCCCNC(=S)SCC(N)C(=O)O (stereo not shown) [SFN-Cys, SFN-cysteine]", "0.02 (0.01) μM"]
]}

* * *

- Experiment: SFN metabolites in plasma by LC-MS/MS
- Condition description: BSE group n=42
Measured endpoint: Plasma level of individual SFN metabolite, change (post minus pre), Mean (SE)

{"columns": ["Compound", "Result"],
 "data": [
  ["C[S+]([O-])CCCCNC(=S)SC[C@H](NC(=O)CC[C@H](N)C(=O)O)C(=O)NCC(=O)O (stereo partly shown) [SFN-GSH, SFN-glutathione]", "0.03 (0.01) μM"],
  ["C[S+]([O-])CCCCN=C=S (stereo not shown) [SFN, sulforaphane]", "0.0001 (0.0001) μM"],
  ["CC(=O)N[C@@H](CSC(=S)NCCCC[S+](C)[O-])C(=O)O (stereo partly drawn) [SFN-NAC, SFN N-acetyl-L-cysteine]", "0.03 (0.01) μM"],
  ["C[S+]([O-])CCCCNC(=S)SCC(N)C(=O)O (stereo not shown) [SFN-Cys, SFN-cysteine]", "0.02 (0.01) μM"]
]}
